- Test system: UACC-62 melanoma
- Method Description: NCI-60 one-dose screen, 48 h
- Measurement Parameters: 10 µM unless noted
About 83,000 compounds went through this panel and 20% of them were active in at least one assay; those are over-represented in the sample as a whole. Calls of active or inactive are those of the source. How the source made its calls: active means growth percent below 10; inactive means the rest.
Pick one and only one: 1 (active), 0 (inactive)

Asked: Any idea what this test logged for C/C(=N/NC(N)=S)c1ccc(Nc2nc(SCC(C)C)nc(-c3ccc(F)cc3)c2C#N)cc1 ?
Given back: 1

Asked: Request: N#Cc1nc(-c2ccccc2)oc1S(=O)(=O)N1CCN(CCc2ccccn2)CC1
Given back: 0

Asked: Input Cc1sc2nc(NCc3ccccc3Cl)[nH]c(=O)c2c1C
Given back: 0

Asked: How about Cc1ccccc1NC(=O)/C=C/c1ccc(OCCOc2ccc3c(C)cc(=O)oc3c2)cc1 ?
Given back: 0

Asked: Same lookup for COc1cc(-c2nc3ccc(-c4nnc(SCC(=O)Nc5ccc(C(=O)/C=C/c6ccc(Cl)cc6)cc5)o4)cc3[nH]2)cc(OC)c1OC , please.
Given back: 0

====

- Test system: KM12 colon
- Method Description: NCI-60 one-dose screen, 48 h (100 = growth as untreated, 0 = no growth, -100 = all killed)
- Measurement Parameters: 10 µM unless noted
- Protocol: Growth inhibition of the KM12 human tumor cell line is measured as a screen for anti-cancer activity. Cells are grown in 96 well plates and exposed to the test compound for 48 hours. Compounds are tested at a single concentration, which is 10^-5 M for most compounds. The reported endpoint is percent growth (GI% or GIPRCNT), where numbers from 0 - 100% represent growth inhibition, and numbers from -100% - 0 represent cell death. For example, a value of 40 represents 60% growth inhibition. […]
This is part of a sample that, as a whole, favours compounds with a hit. Of some 83,000 tested, about 20% had one in any assay. Activity calls are given as the source filed them. Rule for the calls: active = growth percent below 10; inactive = the rest.
Quantity Measured: growth

Asked: Recorded growth of COc1ccccc1C(=O)CSc1nc(Nc2ccc(S(N)(=O)=O)cc2)c2ccccc2n1 , please.
Given back: 78.4% (inactive)

Asked: Same question, O=C(CN1C(=O)/C(=C/c2ccccc2)SC1=S)N1CCOCC1 this time
Given back: 100% (inactive)

Asked: Next record, please: N=C1CC(=O)NN1C(=O)CSc1nc2sc3c(c2c(=O)n1-c1ccc(Cl)cc1)CCCC3
Given back: 104% (inactive)

Asked: Same for CCN(CC)c1ccc(C=O)c(OCc2cn(CC(=O)Nc3ccc(Cl)cc3)nn2)c1
Given back: 70.4% (inactive)

Asked: Okay, and C#C[C@]1(O)CC[C@H]2[C@@H]3CC=C4c5sc(Nc6ccc(Cl)cn6)nc5CC[C@]4(C)[C@H]3CC[C@@]21C ?
Given back: 38.9% (inactive)

Asked: Try this molecule next: COc1cc(/C=C/C(=O)c2ccc(Cl)cc2)ccc1Oc1nc(NCCO)nc(N2CCOCC2)n1
Given back: 106% (inactive)

Asked: Also need COc1ccc(Cc2nn(CC(=O)N/N=C/c3ccc(Cl)cc3)c(=O)c3c(C)noc23)cc1 , thanks.
Given back: 85.9% (inactive)

Asked: Item: COc1ccccc1/C=C/C=N/NC1=NC2C(S1)N(C)C(=O)N2C (stereo not given)
Given back: 18.2% (inactive)

Asked: And CS(=O)(=O)c1ccc(-c2nc3ccccn3c2/C=N/Nc2nc(-c3ccc(Cl)cc3)cs2)cc1 ?
Given back: 112% (inactive)

Asked: Also check O=C(CCN1C(=O)/C(=C/c2ccccc2F)SC1=S)N1CCOCC1
Given back: 80.8% (inactive)

Asked: Cool, now O=C1[C@H]2Cc3c([nH]c4ccccc34)[C@@H](c3ccc(Br)cc3)N2C(=O)CN1C1CCN(Cc2ccccc2)CC1
Given back: 36.7% (inactive)

Asked: Cool, now Oc1c(Cl)cc(Cl)c2ccc(CN3CCCCC3)nc12
Given back: 30.7% (inactive)

Asked: And the next one, CC1=C(C)C(=O)C(Nc2cccc(C(F)(F)F)c2)=C(Cl)C1=O ?
Given back: 67.2% (inactive)

Asked: Next record, please: CCOC(=O)c1csc(NC(=O)CSc2nc3sc4c(c3c(=O)n2-c2ccc(Cl)cc2)CCCC4)n1
Given back: 109% (inactive)

Asked: Input CN(C)c1ccc(/C=C2\Cc3c(F)ccc(Br)c3C2=O)cc1
Given back: 93.1% (inactive)

Asked: How about this molecule: CCOC(=O)c1c(Nc2ccccc2)nn2c(N)c(C#N)c(-c3ccc(OC)cc3)nc12
Given back: 83% (inactive)

Asked: What do we get for CC(=O)Oc1ccccc1C(=O)Nc1cc(C(C)C)ccc1C ?
Given back: 11.1% (inactive)

Asked: What do we get for COc1ccc(-c2csc(N/N=C/c3c(-c4ccc(S(C)(=O)=O)cc4)nc4ccccn34)n2)cc1 ?
Given back: 103% (inactive)

Asked: One more molecule: COc1cc(/C=C/C(=O)c2ccc(F)cc2)ccc1Oc1nc(NCCO)nc(N2CCOCC2)n1
Given back: 27.3% (inactive)

Asked: Lookup N#Cc1ccc(/C=N/NC(=O)c2[nH]c3ccc(Br)cc3c2-c2ccccc2)s1
Given back: 11% (inactive)

Where do the numbers come from? From PubChem BioAssay (NCI).
